Let's look at some compounds and their measured Max ΔMAP (mmHg ± SEM).
tested on: SHRs (spontaneous hypertensive rats); assay: In vivo hypotensive activity in SHRs, tail-pinch method; conditions: male SHRs, 10 mg/kg po, measured 1-24 h after administration
Value expressed in mmHg; do not type the unit.

The following compounds have reported results that may help.
Compound	Max ΔMAP (mmHg ± SEM) (mmHg)
COC(=O)C1=C(C)NC(C)=C(C(=O)OCCN2CCN(C(c3ccccc3)c3ccccc3)CC2)C1c1cccc([N+](=O)[O-])c1 (stereo not shown) [manidipine, reference compound]	74
COC(=O)C1=C(C)NC(C)=C(C(=O)OC2(C)CCN(CCc3ccccc3)C2)[C@H]1c1cccc([N+](=O)[O-])c1 (stereo partly shown)	43
COC(=O)C1=C(C)NC(C)=C(C(=O)OC2(C)CCN(C(c3ccccc3)c3ccccc3)C2)[C@H]1c1cccc([N+](=O)[O-])c1 (stereo partly shown)	55
COC(=O)C1=C(C)NC(C)=C(C(=O)O[C@@]2(C)CCN(CC(c3ccccc3)c3ccccc3)C2)[C@H]1c1cccc([N+](=O)[O-])c1	80
COC(=O)C1=C(C)NC(C)=C(C(=O)O[C@]2(C)CCN(CC(c3ccccc3)c3ccccc3)C2)[C@H]1c1cccc([N+](=O)[O-])c1	72
COC(=O)C1=C(C)NC(C)=C(C(=O)OC2(C)CCN(CCCc3ccccc3)C2)[C@H]1c1cccc([N+](=O)[O-])c1 (stereo partly shown)	28
COC(=O)C1=C(C)NC(C)=C(C(=O)OC2(C)CCN(Cc3cc(F)cc(F)c3)C2)[C@H]1c1cccc([N+](=O)[O-])c1 (stereo partly shown)	60
COC(=O)C1=C(C)NC(C)=C(C(=O)OC2(C)CCN(CC(c3ccccc3)c3ccccc3)C2)[C@H]1c1cccc([N+](=O)[O-])c1 (stereo partly shown)	69

Kindly note the recorded Max ΔMAP (mmHg ± SEM) for COC(=O)C1=C(C)NC(C)=C(C(=O)O[C@H]2CCN(Cc3ccccc3)C2)[C@H]1c1cccc([N+](=O)[O-])c1 [barnidipine, reference compound] , which is 81

Kindly note the recorded Max ΔMAP (mmHg ± SEM) for COC(=O)C1=C(C)NC(C)=C(C(=O)OC(C)(C)CN(C)CCC(c2ccccc2)c2ccccc2)C1c1cccc([N+](=O)[O-])c1 (stereo not shown) [lercanidipine, reference compound] , which is 77

Kindly note the recorded Max ΔMAP (mmHg ± SEM) for CC1=C(C(=O)OCCN(Cc2ccccc2)c2ccccc2)C(c2cccc([N+](=O)[O-])c2)C(P2(=O)OCC(C)(C)CO2)=C(C)N1 (stereo not shown) [efonidipine, reference compound] , which is 69

Kindly note the recorded Max ΔMAP (mmHg ± SEM) for CC1=C(C(=O)OC(C)C)C(c2cccc([N+](=O)[O-])c2)C(C(=O)OC2CN(C(c3ccccc3)c3ccccc3)C2)=C(N)N1 (stereo not shown) [azelnidipine, reference compound] , which is 79

Kindly note the recorded Max ΔMAP (mmHg ± SEM) for CCOC(=O)C1=C(COCCN)NC(C)=C(C(=O)OC)C1c1ccccc1Cl (stereo not shown) [amlodipine, reference compound] , which is 74

* * *

Let's look at some compounds and their measured IC50.
tested on: T-type calcium ion channels; assay: T-type calcium ion channel inhibition, whole cell patch-clamp (electrophysiological method); type: cell-based; conditions: cerebral cortex nerve cells of suckling mice, room temperature
Where a name gives a salt, the structure may show the parent alone.
Value expressed in µM; do not type the unit.

The following compounds have reported results that may help.
Compound	Experimental target	Reported property	Units of measure	Obs value
COC(=O)C1=C(C)NC(C)=C(C(=O)O[C@H]2CCN(Cc3ccccc3)C2)[C@H]1c1cccc([N+](=O)[O-])c1 [barnidipine, reference compound]	T-type calcium ion channels	IC50	µM	8.15
COC(=O)C1=C(C)NC(C)=C(C(=O)OC2(C)CCN(CCC(c3ccccc3)c3ccccc3)C2)C1c1cccc([N+](=O)[O-])c1 (centres unmarked) [Compound 2 hydrochloride]	T-type calcium ion channels	IC50	µM	3.2
COC(=O)C1=C(C)NC(C)=C(C(=O)O[C@@]2(C)CCN(CCC(c3ccccc3)c3ccccc3)C2)[C@H]1c1cccc([N+](=O)[O-])c1	T-type calcium ion channels	IC50	µM	2.28

Kindly note the recorded IC50 for COC(=O)C1=C(C)NC(C)=C(C(=O)OC2(C)CCN(Cc3ccccc3)C2)C1c1cccc([N+](=O)[O-])c1 (centres unmarked) [Compound 1 hydrochloride] , which is 4.47

Hello, the source for this data is patent US9198902B2, in case you need it.
